Target Entity: UniProtKB O35433
Sequence (O35433 whole entry): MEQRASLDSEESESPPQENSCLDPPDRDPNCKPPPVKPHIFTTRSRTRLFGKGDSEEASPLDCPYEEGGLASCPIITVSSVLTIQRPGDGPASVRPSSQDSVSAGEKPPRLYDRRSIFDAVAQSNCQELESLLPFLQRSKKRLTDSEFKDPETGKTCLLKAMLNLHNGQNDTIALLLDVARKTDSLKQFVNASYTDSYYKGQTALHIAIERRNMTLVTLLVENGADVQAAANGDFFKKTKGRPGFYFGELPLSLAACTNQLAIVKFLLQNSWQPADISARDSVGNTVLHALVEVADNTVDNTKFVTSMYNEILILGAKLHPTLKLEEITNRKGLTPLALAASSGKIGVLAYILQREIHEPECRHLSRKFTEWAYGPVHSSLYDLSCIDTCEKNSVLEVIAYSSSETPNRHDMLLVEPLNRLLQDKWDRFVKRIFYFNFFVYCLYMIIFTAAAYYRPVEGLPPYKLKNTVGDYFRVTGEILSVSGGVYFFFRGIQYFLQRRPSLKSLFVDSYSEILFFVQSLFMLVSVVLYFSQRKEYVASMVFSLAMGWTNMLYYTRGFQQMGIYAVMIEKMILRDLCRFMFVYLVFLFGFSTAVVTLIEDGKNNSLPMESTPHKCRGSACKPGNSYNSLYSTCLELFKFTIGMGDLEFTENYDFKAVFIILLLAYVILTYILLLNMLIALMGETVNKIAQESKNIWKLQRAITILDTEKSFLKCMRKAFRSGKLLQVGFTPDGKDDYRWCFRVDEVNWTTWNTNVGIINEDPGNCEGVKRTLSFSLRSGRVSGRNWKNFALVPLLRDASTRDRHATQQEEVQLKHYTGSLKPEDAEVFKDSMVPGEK
Method Notes: TRPV1 modulation in DRG neurones: CGRP release in absence and presence of capsaicin (Assay 2)
Assay type: cell-based
Parameters: The culture used for this experiment contained sensory neurones, Schwann cells and fibroblasts; endogenous in cells; host or cells: primary rat DRG sensory neurone culture (with Schwann cells and fibroblasts)
Stated Conditions: 20 min; test compound alone 3 μM, rat DRG sensory neurones, 20 min; read-out: CGRP release (% of capsaicin (1 μM) response)
Mark F for Emax at 3 µM values under 50%, and T for everything at or above.

Solved cases below.
INSERT INTO assay_data (molecule, target_entity, label) VALUES
  ('COc1cc(CCC(=O)CC(=O)c2ccc(-c3ccccc3)cc2)ccc1O [Compound 18]', 'UniProtKB O35433', 'T'),
  ('COc1cc(CCC(=O)C(C)(C)C(=O)C(C)(C)C)ccc1O [Compound 71]', 'UniProtKB O35433', 'F'),
  ('COc1cc(CCC(=O)C(C)C(=O)c2ccc(O)c(OC)c2)ccc1O (stereo not drawn) [Compound 16]', 'UniProtKB O35433', 'T'),
  ('COc1cc(CCC(=O)CC(=O)Cc2ccccc2)ccc1O [Compound 28]', 'UniProtKB O35433', 'F'),
  ('COc1cc(CCC(=O)CC(=O)C2(C)CC2)ccc1O [Compound 6]', 'UniProtKB O35433', 'T'),
  ('COc1cc(CCC(=O)CC(=O)c2cccc(Cl)c2)ccc1O [Compound 22]', 'UniProtKB O35433', 'T');

Quick check, Emax at 3 µM >= 50%? COc1cc(CCC(=O)CC(=O)c2ccc(C)cc2)ccc1O [Compound 80]
T

Could you please find out whether COc1cc(CCC(=O)CC(=O)c2ccc(Cl)cc2C)ccc1O [Compound 76] has Emax at 3 µM that meets 50% or exceeds it?
T
